# Test system: Alopecurus myosuroides (ALOMY)
# assay_procedure: Glasshouse assay for herbicidal activity (pre- and post-emergence), percentage phytotoxicity
# Assay type: in vivo
# conditions: Alopecurus myosuroides, pre-emergence, 480 h, 250 g/ha; pre-emergence; 20 DAA; visual assessment (100%=total damage, 0%=no damage); read-out: Pre-emergence herbicidal activity (percentage phytotoxicity) ALOMY PRE
quantity: pest or weed control at 250 g/ha (%)
Enter your answer as a number in %; do not include the unit.

Before answering, review these 5 worked examples.
Cc1cc(-c2ncccc2F)cc(C)c1C1C(=O)CC(CC(=O)NC(C)(C)C)C1=O (centres unmarked) : 90
Cc1cc(OCC(F)(F)F)cc(C)c1C1C(=O)CC(CC(=O)N2CCOCC2)C1=O (centres unmarked) : 90
C#CC(C)(C)NC(=O)CC1CC(=O)C(c2c(C)cc(Br)cc2C)C1=O (centres unmarked) : 90
Cc1cc(-c2ncc(F)cn2)cc(C)c1C1C(=O)CC(CC(=O)NC2CCCC2)C1=O (centres unmarked) : 90
C#CCCNC(=O)CC1CC(=O)C(c2c(C)cc(C)cc2C)C1=O (centres unmarked) : 70

Task item: Hello, please tell me recorded pest or weed control at 250 g/ha for this one: Cc1cc(-c2ncc(Cl)cc2C#N)cc(C)c1C1C(=O)CC(CC(=O)NC(C)(C)C)C1=O (centres unmarked)
Reply: 90

Task item: Please report the measured pest or weed control at 250 g/ha for COc1cccc(CNC(=O)CC2CC(=O)C(c3c(C)cc(-c4ncc(Cl)cc4F)cc3C)C2=O)c1 (centres unmarked)
Reply: 80

Task item: Note pest or weed control at 250 g/ha for the compound shown: COc1cccc(CNC(=O)CC2CC(=O)C(c3c(C)cc(Br)cc3C)C2=O)c1 (centres unmarked)
Reply: 80

Task item: Please give measured pest or weed control at 250 g/ha of the following entry: Cc1cc(C)c(C2C(=O)CC(CC(=O)NCc3ccccc3Br)C2=O)c(C)c1 (centres unmarked)
Reply: 30

Task item: Return the recorded pest or weed control at 250 g/ha value; entry: CCc1cccc(C)c1C1C(=O)CC(CC(=O)NC(C)(C)C)C1=O (centres unmarked)
Reply: 90

###

# System: Winter Wheat variety 'Hereward'
# assay_procedure: Glasshouse assay for crop safety, post-emergence, +/- safener cloquintocet-mexyl (CQC), percentage phytotoxicity
# Assay type: in vivo
# conditions: 250 g/ha, without safener cloquintocet-mexyl (CQC), evaluated after 13 days, 100=total damage, 0=no damage
quantity: Post-emergence Crop Selectivity, percentage phytotoxicity, Wheat − CQC (%)
Please state the figure in %; there is no need to write the unit.

Below, each entry is followed by its recorded Post-emergence Crop Selectivity, percentage phytotoxicity, Wheat − CQC result.
CCCNC(=O)CC1CC(=O)C(c2c(C)cc(C)cc2C)C1=O (stereo not drawn) : 70
Cc1cc(-c2ccc(Cl)cn2)cc(C)c1C1C(=O)CC(CC(=O)NCc2cccc(C(F)(F)F)c2)C1=O (stereo not drawn) : 80
Cc1cc(C)c(C2C(=O)CC(CC(=O)NCc3cccs3)C2=O)c(C)c1 (stereo not drawn) : 70
Cc1cc(-n2cc(Cl)cn2)cc(C)c1C1C(=O)CC(CC(=O)NC2CCCC2)C1=O (stereo not drawn) : 70
Cc1cc(-n2cc(Cl)cn2)cc(C)c1C1C(=O)CC(CC(=O)NC(C)(C)C)C1=O (stereo not drawn) : 70

Task item: Tell us which Post-emergence Crop Selectivity, percentage phytotoxicity, Wheat − CQC value is on record for Cc1cc(-c2ccc(F)cn2)cc(C)c1C1C(=O)CC(CC(=O)NC(C)(C)C)C1=O (stereo not drawn)
Reply: 70

###

# pest or weed control at 250 g/ha per record follows
# Tested on: Lolium perenne (LOLPE)
# assay_procedure: Glasshouse assay for herbicidal activity (pre- and post-emergence), percentage phytotoxicity
# Assay type: in vivo
# conditions: Lolium perenne, post-emergence, 360 h, POST-emergence, rate 250 g/ha, visual score 15 DAA (100%=total damage, 0%=no damage); read-out: Post-emergence herbicidal activity (percentage phytotoxicity) LOLPE POST
// return numeric value only (unit: %, not printed)

Recorded results for 5 molecules are shown here.
CC#Cc1cc(C)c(C2C(=O)CC(CC(=O)NCc3cccc(F)c3)C2=O)c(C)c1 (centres unmarked) [Compound B183] : 90
C=C(C)CNC(=O)CC1CC(=O)C(c2c(C)cc(-c3ncc(C#N)cn3)cc2C)C1=O (centres unmarked) [Compound B287] : 90
C=C(C)CNC(=O)CC1CC(=O)C(c2c(C)cc(-c3ncc(F)cn3)cc2C)C1=O (centres unmarked) [Compound B278] : 90
Cc1cc(OCC(F)(F)F)cc(C)c1C1C(=O)CC(CC(=O)NCC2CC2)C1=O (centres unmarked) [Compound B210] : 90
Cc1cc(-c2ncc(Cl)cc2F)cc(C)c1C1C(=O)CC(CC(=O)NCC2CC2(F)F)C1=O (centres unmarked) [Compound B197] : 100

Task item: Enter pest or weed control at 250 g/ha (test system Lolium perenne (LOLPE)) for Cc1cc(-n2cc(Cl)cn2)cc(C)c1C1C(=O)CC(CC(=O)NCc2ccc(C#N)cc2)C1=O (centres unmarked) [Compound B225]
Reply: 60

Task item: Determine reported pest or weed control at 250 g/ha for Cc1cc(-c2ncc(F)cn2)cc(C)c1C1C(=O)CC(CC(=O)N(C)C)C1=O (centres unmarked) [Compound B279] ; test system: Lolium perenne (LOLPE).
Reply: 100

Task item: Report value: pest or weed control at 250 g/ha, system: Lolium perenne (LOLPE), molecule: CCc1cc(C)cc(C)c1C1C(=O)CC(CC(=O)NCC2CC2)C1=O (centres unmarked) [Compound B257]
Reply: 100

###

# Test system: Lolium perenne (LOLPE)
# assay_procedure: Glasshouse assay for herbicidal activity (pre- and post-emergence), percentage phytotoxicity
# Type: in vivo
# conditions: Lolium perenne, pre-emergence, 480 h, 250 g/ha; pre-emergence; 20 DAA; visual assessment (100%=total damage, 0%=no damage); read-out: Pre-emergence herbicidal activity (percentage phytotoxicity) LOLPE PRE
quantity: pest or weed control at 250 g/ha

Cc1cc(C)c(C2C(=O)CC(CC(=O)NC(C)(C)C#N)C2=O)c(C)c1 (centres unmarked) [Compound B43] : 60%
Cc1cc(C)c(C2C(=O)CC(CC(=O)NCc3cccc([N+](=O)[O-])c3)C2=O)c(C)c1 (centres unmarked) [Compound B20] : 70%
Cc1cc(C)c(C2C(=O)CC(CC(=O)NC(C)(C)C3CC3)C2=O)c(C)c1 (centres unmarked) [Compound B65] : 80%

Task item: Find the measured pest or weed control at 250 g/ha of CCNC(=O)CC1CC(=O)C(c2c(C)cc(-c3ncc(Cl)cc3F)cc2C)C1=O (centres unmarked) [Compound B103] and report it.
Reply: 100%

Task item: Give me measured pest or weed control at 250 g/ha, please, for this molecule: Cc1cc(-c2ncc(F)cc2F)cc(C)c1C1C(=O)CC(CC(=O)NCc2cc(F)cc(F)c2)C1=O (centres unmarked) [Compound B71]
Reply: 90%

Task item: Given Cc1cc(C)c(C2C(=O)CC(CC(=O)NCc3ncccc3C)C2=O)c(C)c1 (centres unmarked) [Compound B67] , respond with its pest or weed control at 250 g/ha.
Reply: 90%

Task item: Identify pest or weed control at 250 g/ha associated with the molecule Cc1cc(C)c(C2C(=O)CC(CC(=O)NCC(F)F)C2=O)c(C)c1 (centres unmarked) [Compound B57]
Reply: 80%

Task item: Consider the molecule Cc1cc(C)c(C2C(=O)CC(CC(=O)NC3CC3(F)F)C2=O)c(C)c1 (centres unmarked) [Compound B98] . State its measured pest or weed control at 250 g/ha.
Reply: 90%

Task item: Consider the molecule CCCNC(=O)CC1CC(=O)C(c2c(C)cccc2CC)C1=O (centres unmarked) [Compound B150] . State its measured pest or weed control at 250 g/ha.
Reply: 100%

###

Each record here notes measured pest or weed control at 250 g/ha.
# System: Lolium perenne (LOLPE)
# assay_procedure: Glasshouse assay for herbicidal activity (pre- and post-emergence), percentage phytotoxicity
# Type: in vivo
# conditions: Lolium perenne, post-emergence, 360 h, POST-emergence, rate 250 g/ha, visual score 15 DAA (100%=total damage, 0%=no damage); read-out: Post-emergence herbicidal activity (percentage phytotoxicity) LOLPE POST
All answers are understood in %, so give the number only.

Reference set, count: 3
C=CC(C)NC(=O)CC1CC(=O)C(c2c(C)cc(C)cc2C)C1=O (stereo not shown) : 90
C#CCN(C)C(=O)CC1CC(=O)C(c2c(C)cc(-n3cc(Cl)cn3)cc2CC)C1=O (stereo not shown) : 100
C/C=C/c1cc(C)c(C2C(=O)CC(CC(=O)NC(C)C)C2=O)c(C)c1 (stereo not shown) : 100

Next:
Task item: Specify pest or weed control at 250 g/ha for C#CCN(C)C(=O)CC1CC(=O)C(c2c(C)cc(OCC(F)(F)F)cc2CC)C1=O (stereo not shown) , system Lolium perenne (LOLPE).
Reply: 100
